Values compiled from patent US20200361992A1.

Target: T1, human ferroportin (SLC40A1) fused in frame with the GFP protein, stably expressed in HEK293 cells (human, UniProt Q9NP59 1-571)
T1 sequence (looked up): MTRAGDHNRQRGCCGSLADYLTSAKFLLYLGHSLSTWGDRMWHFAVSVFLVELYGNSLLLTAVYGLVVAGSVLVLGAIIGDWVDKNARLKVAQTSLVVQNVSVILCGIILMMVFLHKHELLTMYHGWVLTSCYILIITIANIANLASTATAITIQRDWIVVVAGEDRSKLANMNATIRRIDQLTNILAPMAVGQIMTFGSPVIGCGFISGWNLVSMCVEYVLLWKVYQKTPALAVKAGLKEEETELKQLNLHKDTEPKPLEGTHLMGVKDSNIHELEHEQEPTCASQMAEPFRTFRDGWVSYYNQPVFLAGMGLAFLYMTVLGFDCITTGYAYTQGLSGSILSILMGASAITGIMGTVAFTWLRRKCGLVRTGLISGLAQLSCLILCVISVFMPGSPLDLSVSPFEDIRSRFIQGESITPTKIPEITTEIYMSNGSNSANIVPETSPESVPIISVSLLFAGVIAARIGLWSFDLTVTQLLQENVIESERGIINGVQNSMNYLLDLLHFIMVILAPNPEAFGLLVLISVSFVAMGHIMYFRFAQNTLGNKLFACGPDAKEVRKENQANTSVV
Assay: cell-based or functional assay
Starred links: 1 amine or outer side, 2 acyl side, 3 side chain; linkers in the order of their positions; H or OH if unused. Positions of bridges follow the written chain, without caps; N, C: chain ends. Non-standard residues stand in square brackets, D forms with d. Groups on a side chain read outwards from the residue. *: point of attachment. PEG12 = NCCOCCOCCOCCOCCOCCOCCOCCOCCOCCOCCOCCOCCC(=O)O; Dip = N[C@H](C(=O)O)C(c1ccccc1)c1ccccc1; NPC = nipecotic acid (L-nipecotic acid); γGlu = O=C(O)[C@H](CCC(=O)[*:2])N[*:1]; Palmitoyl = CCCCCCCCCCCCCCCC(=O)*; αMeF = C[C@](N)(Cc1ccccc1)C(=O)O; Isovaleryl = CC(C)CC(=O)*
PROPERTY: FPN IC50 (nM)

Q: Endpoint output: FPN IC50 of Isovaleryl-DTH[Dip]PCIK([γGlu-Palmitoyl])[αMeF]C-NH2 (disulfide 6-10; SMILES CCCCCCCCCCCCCCCC(=O)N[C@@H](CCC(=O)NCCCC[C@@H]1NC(=O)[C@H]([C@@H](C)CC)NC(=O)[C@@H](NC(=O)[C@@H]2CCCN2C(=O)[C@@H](NC(=O)[C@H](Cc2c[nH]cn2)NC(=O)[C@@H](NC(=O)[C@H](CC(=O)O)NC(=O)CC(C)C)[C@@H](C)O)C(c2ccccc2)c2ccccc2)CSSC[C@@H](C(N)=O)NC(=O)[C@](C)(Cc2ccccc2)NC1=O)C(=O)O) [Compd ID 216] . Value?
Result: 16

I. Isovaleryl-DTHF[NPC]CIK([γGlu-Palmitoyl])[αMeF]C-NH2 (disulfide 6-10) [Compd ID 221]
II. Isovaleryl-DTHFPCI[dK]([PEG12-Palmitoyl])F[dR]C-NH2 (disulfide 6-11; not fully specified) [Compd ID 226]
Q: Could you please tell me which of these two has the higher FPN IC50: I or II ? Select an item and report its label.
Result: I
(I: 79 nM, II: 23 nM)
